These entries and their values trace back to PubChem BioAssay AID504332.

# target_under_test: Histone-lysine N-methyltransferase EHMT2 (Homo sapiens) (UniProt Q96KQ7)
# Sequence (Q96KQ7 913-1193 limits assumed): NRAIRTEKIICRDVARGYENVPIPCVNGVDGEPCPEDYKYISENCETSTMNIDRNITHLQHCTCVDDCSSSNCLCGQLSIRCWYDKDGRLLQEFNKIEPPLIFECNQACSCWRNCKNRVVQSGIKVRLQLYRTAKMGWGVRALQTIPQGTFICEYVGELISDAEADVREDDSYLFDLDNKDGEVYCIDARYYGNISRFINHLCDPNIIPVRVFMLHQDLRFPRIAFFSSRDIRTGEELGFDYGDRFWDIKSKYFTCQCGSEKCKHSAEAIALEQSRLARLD
# protocol: qHTS Assay for Inhibitors of Histone Lysine Methyltransferase G9a; also: nearly all actives have a fitted effect of over 75% in size
# condition_set: G9a H3K9 monomethylation, AlphaScreen, 2 h; series mostly up to 59 µM
About 31,000 (8.9%) of roughly 350,000 compounds were called active. Not shown: some 15% with an inconclusive outcome. Calls follow the shape of the dose curve; as a rule, active = well fitted inhibition curve with a large enough effect; inconclusive = small, poorly fitted or top-dose-only effect; inactive = no such curve, though single readings can be large or run the other way. The list comes from a sample in which actives are over-represented; it also holds close analogues and randomly drawn compounds.
Labels: 1 (yes) for active, 0 (no) for inactive

{"compound": "CCCC(=O)C1=C(N(C)c2ccccc2)CC(C)(C)C(C(=O)OC)C1=O (configuration not stated)", "target_under_test": "Histone-lysine N-methyltransferase EHMT2 (Homo sapiens) (UniProt Q96KQ7)", "class_assignment": "0 (no)"}
{"compound": "O=C(O)c1cc2c(cc1NC(=O)c1c(F)cccc1Cl)OCCCO2", "target_under_test": "Histone-lysine N-methyltransferase EHMT2 (Homo sapiens) (UniProt Q96KQ7)", "class_assignment": "0 (no)"}
{"compound": "CCOc1ccc(N=Cc2c(O)n(-c3cccc(C)n3)c(=O)c3ccccc23)cc1", "target_under_test": "Histone-lysine N-methyltransferase EHMT2 (Homo sapiens) (UniProt Q96KQ7)", "class_assignment": "0 (no)"}
{"compound": "Cc1ccc(C)c(N2CCN(C(=O)Cc3c(C(=O)O)c(C)cn3C)CC2)c1", "target_under_test": "Histone-lysine N-methyltransferase EHMT2 (Homo sapiens) (UniProt Q96KQ7)", "class_assignment": "0 (no)"}
{"compound": "CCOC(=O)Cn1c(=O)n(Cc2ccc(OC)cc2)c(=O)c2cccnc21", "target_under_test": "Histone-lysine N-methyltransferase EHMT2 (Homo sapiens) (UniProt Q96KQ7)", "class_assignment": "0 (no)"}
{"compound": "COc1ccc(N=C(C)c2sc3ccccc3c2O)cc1", "target_under_test": "Histone-lysine N-methyltransferase EHMT2 (Homo sapiens) (UniProt Q96KQ7)", "class_assignment": "0 (no)"}
{"compound": "N#Cc1c(C(F)(F)F)cc(-c2ccc(Cl)cc2)nc1SCC(=O)O", "target_under_test": "Histone-lysine N-methyltransferase EHMT2 (Homo sapiens) (UniProt Q96KQ7)", "class_assignment": "0 (no)"}
{"compound": "CCOC(=O)c1cc2c(n(-c3ccc(C)cc3)c1=O)CCCC2=O", "target_under_test": "Histone-lysine N-methyltransferase EHMT2 (Homo sapiens) (UniProt Q96KQ7)", "class_assignment": "1 (yes)"}
{"compound": "COc1ccc(S(=O)(=O)N2CCOCC2)cc1NC(=O)CSc1ncnc2ccccc12", "target_under_test": "Histone-lysine N-methyltransferase EHMT2 (Homo sapiens) (UniProt Q96KQ7)", "class_assignment": "0 (no)"}
{"compound": "O=C(Nc1ccc2c(c1)nc1n2CCCCC1)c1cc(S(=O)(=O)N2CCOCC2)ccc1Cl", "target_under_test": "Histone-lysine N-methyltransferase EHMT2 (Homo sapiens) (UniProt Q96KQ7)", "class_assignment": "0 (no)"}
{"compound": "COc1cc(/C=N/O)ccc1OCc1ccc([N+](=O)[O-])cc1", "target_under_test": "Histone-lysine N-methyltransferase EHMT2 (Homo sapiens) (UniProt Q96KQ7)", "class_assignment": "0 (no)"}
{"compound": "Oc1ccc(N=Cc2c(O)ccc3ccccc23)cc1", "target_under_test": "Histone-lysine N-methyltransferase EHMT2 (Homo sapiens) (UniProt Q96KQ7)", "class_assignment": "1 (yes)"}
{"compound": "Cc1cccc(OCCC(=O)Nc2cc(S(=O)(=O)N3CCCCC3)ccc2N2CCOCC2)c1", "target_under_test": "Histone-lysine N-methyltransferase EHMT2 (Homo sapiens) (UniProt Q96KQ7)", "class_assignment": "0 (no)"}
{"compound": "CCCCOc1ccc(NC(=O)c2cc3c(n(-c4ccc(Cl)cc4)c2=O)CCCC3=O)cc1", "target_under_test": "Histone-lysine N-methyltransferase EHMT2 (Homo sapiens) (UniProt Q96KQ7)", "class_assignment": "0 (no)"}
{"compound": "Oc1ccc(N=Cc2sc3ccccc3c2Cl)cc1", "target_under_test": "Histone-lysine N-methyltransferase EHMT2 (Homo sapiens) (UniProt Q96KQ7)", "class_assignment": "1 (yes)"}
{"compound": "O=C(CNS(=O)(=O)c1ccccc1)N1CCN(C(=O)c2ccco2)CC1", "target_under_test": "Histone-lysine N-methyltransferase EHMT2 (Homo sapiens) (UniProt Q96KQ7)", "class_assignment": "0 (no)"}
{"compound": "COc1ccc(S(=O)(=O)N2CCOCC2)cc1NC(=O)COc1ccccc1", "target_under_test": "Histone-lysine N-methyltransferase EHMT2 (Homo sapiens) (UniProt Q96KQ7)", "class_assignment": "1 (yes)"}
{"compound": "O=C(CNCc1cccs1)Nc1cc(S(=O)(=O)N2CCCC2)ccc1Cl", "target_under_test": "Histone-lysine N-methyltransferase EHMT2 (Homo sapiens) (UniProt Q96KQ7)", "class_assignment": "0 (no)"}
{"compound": "CCSc1nc(-c2ccc(OC)cc2)cc(-c2ccc(OC)cc2)c1C#N", "target_under_test": "Histone-lysine N-methyltransferase EHMT2 (Homo sapiens) (UniProt Q96KQ7)", "class_assignment": "0 (no)"}
{"compound": "Cc1ccc(S(=O)(=O)N2CCOCC2)cc1C(=O)NCc1ccc(F)cc1", "target_under_test": "Histone-lysine N-methyltransferase EHMT2 (Homo sapiens) (UniProt Q96KQ7)", "class_assignment": "0 (no)"}
{"compound": "COc1cc(/C=N/n2c(C)n[nH]c2=S)ccc1OCc1ccccc1", "target_under_test": "Histone-lysine N-methyltransferase EHMT2 (Homo sapiens) (UniProt Q96KQ7)", "class_assignment": "1 (yes)"}
{"compound": "COc1ccccc1CSc1ncc(-c2ccc([N+](=O)[O-])cc2)[nH]1", "target_under_test": "Histone-lysine N-methyltransferase EHMT2 (Homo sapiens) (UniProt Q96KQ7)", "class_assignment": "1 (yes)"}
